B1: ZBTB22 (parent)
chain: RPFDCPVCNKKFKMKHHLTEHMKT

- Variants of: B1
- ASSAY PROCEDURE: protein stability index of a GFP-peptide fusion (GPS, HEK-293T) (PSI 1-6); higher = more stable;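 also: lentivirally expressed fusions sorted by FACS into six bins by GFP to DsRed ratio, PSI derived from sequencing read proportions per bin multiplied by bin number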
- REPORTED CONDITIONS: c terminus: a fixed tail appended
# Lookup of reported protein stability index keyed by entry
REPORTED METRIC: protein stability index

{"MUTANT": "H16C", "REPORTED METRIC": "protein stability index", "REPORTED MEASUREMENT": 2.91}
{"MUTANT": "C8H", "REPORTED METRIC": "protein stability index", "REPORTED MEASUREMENT": 3}
{"MUTANT": "K13L", "REPORTED METRIC": "protein stability index", "REPORTED MEASUREMENT": 2.89}
{"MUTANT": "K13E", "REPORTED METRIC": "protein stability index", "REPORTED MEASUREMENT": 3.31}
{"MUTANT": "V7Y", "REPORTED METRIC": "protein stability index", "REPORTED MEASUREMENT": 3}
{"MUTANT": "K11R", "REPORTED METRIC": "protein stability index", "REPORTED MEASUREMENT": 2.8}
{"MUTANT": "K10P", "REPORTED METRIC": "protein stability index", "REPORTED MEASUREMENT": 2.31}
{"MUTANT": "T24K", "REPORTED METRIC": "protein stability index", "REPORTED MEASUREMENT": 2.43}
{"MUTANT": "L18M", "REPORTED METRIC": "protein stability index", "REPORTED MEASUREMENT": 2.19}

All values here come from the supplement of paper PMC10567573.
